Data provenance is ChEMBL document CHEMBL1139339.

system: Musca domestica; assay: Displacement of [3H]EBOB from housefly GABA receptor
Calls of active or inactive are those of the source. The calls are words filed in the database; no cut-off is given here.

# compound, Activity
data = [
    ("C[C@@]12NC(=O)[C@H](C[C@]13C(=O)N(Cc1ccccc1)c1ccccc13)n1c2nc2ccccc2c1=O (racemic)", "Active"),
    ("C[C@@]12NC(=O)[C@H](C[C@]13C(=O)Nc1ccccc13)n1c2nc2cc(Cl)ccc2c1=O (racemic)", "Active"),
    ("C[C@@]12NC(=O)[C@H](C[C@@]13C(=O)Nc1ccccc13)n1c2nc2ccc(Cl)cc2c1=O (racemic)", "Active"),
]
